Test system: MS2 coat protein
assay: apparent KD of MS2 coat protein; designed switch direction (-1 OFF switch, 1 ON switch): -1; higher = weaker reporter binding
assay-context: Eterna round: R95; input ligand: none
List of apparent KD of MS2 coat protein values.

{"input-sequence": "AAGUACCGUCACGAAAGUGAUGGUACAACAAGUAAAUGUACAUGAGGAUCACCCAUGUCCUCAAUUGCUCGUCUUAU [Sensor 3 - 60] (puzzle: Sensor v3, turn-off variant 2)", "apparent KD of MS2 coat protein": "745 nM"}
{"input-sequence": "GAUUAUGCGAGCUUUAGGGACAUGAGGAUCACCCAUGUUCGUCUUAUUGGUCUGAAUACACUAACAUACCUAAAUCU [JMF 11] (puzzle: Sensor v3, turn-off variant 1)", "apparent KD of MS2 coat protein": "21.7 nM"}
{"input-sequence": "AGUAGAUCUACGCUUGCGUGGAUCUGCAUUGCAAGUGUAACAUGAGGAUCACCCAUGUCCUCAUUUGCUCGUCUUAU [JL turnoff v2 99.02] (puzzle: Sensor v3, turn-off variant 2)", "apparent KD of MS2 coat protein": "54.2 nM"}
{"input-sequence": "GAUUAUGCGAGCUUUAGGGACAUGAGGAUCACCCAUGUUCGUCUUAUUAAUCUGGGUACACUGGCAUACCUAAAUCU [JMF 7] (puzzle: Sensor v3, turn-off variant 1)", "apparent KD of MS2 coat protein": "28.1 nM"}
{"input-sequence": "GACUAAAUGUGGUUUGGUUACAUGAGGAUCACCCAUGUUGGUCUAAGAACAUGUCUUUUGUACGCUUGUCUUAUAUA [JR_SV3TOV1_Sub067] (puzzle: Sensor v3, turn-off variant 1)", "apparent KD of MS2 coat protein": "896 nM"}
{"input-sequence": "GAUUAUGCGAGCUUUAGGGACAUGAGGAUCACCCAUGUUCGUCUUAUUAGUCUAGGUGCGCUAACAUACCUAAAUCU [JMF 50] (puzzle: Sensor v3, turn-off variant 1)", "apparent KD of MS2 coat protein": "21.6 nM"}
{"input-sequence": "GAAAAGGUAGGAUAUACGAAAAAAAAGGGUAGAUAAAAAACACAUGAGGAUCACCCAUGUAGAAGGACCAAAAG [salish99_ex2_r3_078] (puzzle: Exclusion 2)", "apparent KD of MS2 coat protein": "29.3 nM"}
{"input-sequence": "CUGAGGUAGCGGUCCUAUGACAUGAGGAUCACCCAUGUACCUUGCUACAAGCUUUUUGCUCGUCUUAUGAUUCUCGG [JL Atriat mod 8] (puzzle: Sensor v3, turn-off variant 1)", "apparent KD of MS2 coat protein": "70.2 nM"}
{"input-sequence": "CGGUGCUGAGGAUAUACAUGAGGAUCACCCAUGUGUUAUUGAUAGAAAACUGGCAGAUGUAGAAGGCGGUACUG [Mat - Exclusion 3 - Mod of JL D99] (puzzle: Exclusion 3)", "apparent KD of MS2 coat protein": "24.9 nM"}

====

Tested on: K4 kissing-loop RNA reporter;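 further: bound reporter read as fluorescence of individual clusters on recovered sequencing chips by microscopy, with normalized cluster intensities fitted with a binding model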
assay: apparent KD of K4 kissing-loop reporter; higher = weaker reporter binding
assay-context: Eterna round: R107; input ligand: tryptophan 2.4 mM
Catalogue of sequences with associated apparent KD of K4 kissing-loop reporter
reported-endpoint: apparent KD of K4 kissing-loop reporter

{"input-sequence": "AGUUCUUGCCGAAGGAGCGAGGCAGAGUGAUGUUCUGCAAGAGGUCGAAAGACCUCACUGCCUCAGGUAGGUCGCGGCAUGAACA [Omei KL Arginine B Exc A v4]", "experimental-value": "1050 nM"}
{"input-sequence": "CGAGUGAUGUUCGAAGAGUUGUUAAGCGAUACCAGCCAGGAAACUGGCCCUUGGCAGCGUAAUAAAUAAAUAAAUAAAUGAUCAC [Theophylline A Exclusion; Euphoria Solution]", "experimental-value": "372 nM"}
{"input-sequence": "UGCACGGGCUCGGCCGCCACUCCCGCGGGUCGCAAGGUCCGCUACUGAGUGAUGUUCGGUUGGAGGAGGACCGGGAGCCCGUGCA [#2 Exclusion - Tryptophan B Attempt #27 (HarryS)]", "experimental-value": "107 nM"}
{"input-sequence": "CCUGGCGAGGUAACGUGGAUAUCUCGUCGCAAGGAUAUCUGGAAACAGAGAAGGUGCUACAUUACCGGCAGUGAUGUUGCUGACC", "experimental-value": "274 nM"}
{"input-sequence": "CGCGUUGGUUGAGAGGUUGGCGCGAAUGAUACCAGUAUAUAAGAAUACCCUUGGCAGCAUAAGAAAGAUAUAGUGAUGUUGUAUA [SSTheophA.I]", "experimental-value": "420 nM"}
{"input-sequence": "UAGCUCUACAGAAGGAGCGACGUUCUUAGACAGUGAUGUUGUCUAUAGUGAAUAUAGGAACGUCAGGUAGGUCGCUGUAGAGCUA [Arg B SS t11]", "experimental-value": "164 nM"}
{"input-sequence": "CCUUCCCUUGAUAGUGAUGUUAUCAAGGACAAGGAUAUCAUCUCAAUGAGAAGGUGUCCUUGAUAACAUGGAGGUCUGAAACAGA [Omei KL FMN A Exc C v2]", "experimental-value": "139 nM"}
{"input-sequence": "UGAUACCAGACGGCCGCCACUCCCGUAAGUCAAAGACUUACGAAGAGAAUCGUCCAGUGAUGUUGGAGGACCGGGUCUGGUAUCU [FiskerMod 11 - Jieux - Exclusion - Tryptophan B]", "experimental-value": "785 nM"}
{"input-sequence": "UAAUCACUCGAACUGCAAGUACGAGUGGAACGAGGACCGGUACGGCCGCCACUCGAUAACUUGCAGUGAUGUUGCAAGUAAGAAU [(T)''-(K)'-(T)'-(T1)-(T2)-(K1)-(K2)_Design7]", "experimental-value": "121 nM"}
{"input-sequence": "GUGCGCGGUGCGGCCGCCACUCGCAUGAGAGUGAUGUUCUCGGGACGGACGGAAGUCCGUCAUGUGAGGACCGGGCAUGGCUGCG [#2 Same State - Tryptophan B Attempt #10 (HarryS)]", "experimental-value": "453 nM"}
{"input-sequence": "GACUGGAGUGAUGUUCCAUUAACGAUCCUACGAGGACCGGUACGGCCGCCACUCGAAAUGCAGUGAUGUUGCAGCCAGCCGUACU [Exclusion Trptophan A GF 8]", "experimental-value": "142 nM"}
{"input-sequence": "AGUGUGCAAAAGCACACUCAGUACAAGGACAAGGAUAUCUACUAAUAGAGAAGGUGUCCUUUCCUUAGUGAUGUUAAGGAACUGA [Omei KL FMN A SS D v3]", "experimental-value": "595 nM"}
{"input-sequence": "UGUGAUGUUGUGAUGUUUAGUGUUGUUGGGCAGGAUAUUGUAGAGGCGAGAAGGGCUAGUGUGAUGUAUGAGUGAUGUUUGUAGU [kkollmullin]", "experimental-value": "186 nM"}
{"input-sequence": "AGAGAGGUGUUUUUUUGAUGUGAGUAAUGGCGAGGACCGGUACGGCCGCCACUCGGGUGAUGUUAGUGAUGUUGAUGUAGUGAUG [p'pmullin]", "experimental-value": "77 nM"}
{"input-sequence": "GCUAGGCAUGCAGGAUAUCGCCGAGUGAUGUUCGGUAGGCCGCUUUCUUUCUUUCUUUGCGGCCAGCGAGAAGGGCAUGCCUAGC", "experimental-value": "118 nM"}
{"input-sequence": "AAUAAGUGUCAGCGAGUGAUGUUCGACGAUACCAGACUCGAUAGAGUCCCUUGGCAGCGUAACGCAUGCCAAACUGGCACAAUAA [#SwitchBubble 8 #K4Early]", "experimental-value": "450 nM"}

====

Tested on: MS2 coat protein
assay: apparent KD of MS2 coat protein; higher = weaker reporter binding
assay-context: Eterna round: R107; input ligand: theophylline 20 uM

{"input-sequence": "ACAUGAGGAUCACCCAUGUGGCGACUUGAUACCAGACCCGCACUAGUCCCUUGGCAGCAACUACGUGAGGGACACCCAUGUGAAG", "apparent KD of MS2 coat protein [nM]": 41.6}
{"input-sequence": "AAAGUUGAUGAGUUGUGUUUGUGUUCGGAAGGAGCGGGAAUUAUCUCAGGUAGGUCGCCGAACAUGAGGAUCACCCAUGUAUAAA [XArg-A 18 NuV2 original #dotplot2>1]", "apparent KD of MS2 coat protein [nM]": 80.1}
{"input-sequence": "UUUACAUGAGGAUCACCCAUGUGCCAUGAUACCAGACAUGAAAAUGUCCCUUGGCAGCAUGAAUGAUUCAUAGGAUAAUUAUGGG [Obrany]", "apparent KD of MS2 coat protein [nM]": 146}
{"input-sequence": "GUACAUGAGGAUCACCCAUGUAUAGUUGAAGGAGCGACCGGAGGGUCAGGUAGGUCGCAGCACAUGGCGUAAACCCGUGUAUGCC [#1 Exclusion - Arginine A Attempt #24 (Inspired by Pi)]", "apparent KD of MS2 coat protein [nM]": 32.7}
{"input-sequence": "ACAUUUAACUGAAGGAGCGUGAUAUGUACAUGAGGAUCACCCAUGUCUUUCAUGUGAUUUUCACAGGUAGGUCGCAGACUAAUGA [JR_ExcArginiB_Sub003]", "apparent KD of MS2 coat protein [nM]": 14.2}
{"input-sequence": "ACGACGCAUAGUGAUACCAGUAGAACAUGAGGAUCACCCAUGUCUGUGGCGCUCCGCCUCUGCCCUUGGCAGCACUAUGCGUCAG [SSTheo B #10]", "apparent KD of MS2 coat protein [nM]": 17}
{"input-sequence": "AUAUAUACAUGAGGAUCACCCAUGUUAUUUCGAGGACCGGUACGGCCGCCACUCGAUAGAGUAGAAGUAAAUUUUAAUUCAUGUA [JR_SSTryptoA_Sub008]", "apparent KD of MS2 coat protein [nM]": 18.7}

// provenance: the supplement of paper PMC9170038
